experiment-summary: self-splicing fitness, log relative to wild type (ln ratio); higher = more splicing; Tetrahymena group I intron in knt gene, E. coli kanamycin selection, DiMSum; sequences stand for … in CUCUCU…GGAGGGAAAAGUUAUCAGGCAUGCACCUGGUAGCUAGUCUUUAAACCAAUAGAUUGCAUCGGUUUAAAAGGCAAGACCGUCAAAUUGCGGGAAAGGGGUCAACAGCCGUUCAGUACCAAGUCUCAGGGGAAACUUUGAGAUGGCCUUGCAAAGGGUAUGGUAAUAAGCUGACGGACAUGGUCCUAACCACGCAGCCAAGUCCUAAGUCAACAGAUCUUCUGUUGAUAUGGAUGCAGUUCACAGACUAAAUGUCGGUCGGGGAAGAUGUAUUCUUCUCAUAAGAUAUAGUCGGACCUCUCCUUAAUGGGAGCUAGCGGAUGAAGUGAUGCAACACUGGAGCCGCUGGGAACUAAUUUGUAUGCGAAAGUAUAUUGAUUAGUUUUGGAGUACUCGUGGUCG;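 note: selection with 25 µg/mL kanamycin versus none on LB agar overnight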
measurement-parameters: 37 °C
Please go through the items and note down their self-splicing fitness (ln).

AAUGAGCAAUAUUACGCCGA: -1.75
UUAUAGCAAUAUUACGGAAC: -1.71
CUCUAGCAAUAUUACGAUUA: -2.85

Below are 8 sequences. Give each one its self-splicing fitness (ln).
1. GUUGAGCAAUAUUACGCCAU
2. AAUCAGCAAUAUUACGCUUC
3. AUGUAGCAAUAUUACGUGGG
4. UGUUAGCAAUAUUACGAGAA
5. CGCUAGCAAUAUUACGAAUG
6. AACAAGCAAUAUUACGUAGA
7. AAACAGCAAUAUUACGGAUG
8. UUUAAGCAAUAUUACGAAAU

-1.09
-0.398
-3.13
-1.85
-0.192
-0.993
-3
-1.04

Below are 2 sequences. Give each one its self-splicing fitness (ln).
1. GAUGAGCAAUAUUACGCUGC
2. ACCUAGCAAUAUUACGUGUU

[-1.25, -1.4]

Below are 2 sequences. Give each one its self-splicing fitness (ln).
1. GCUAAGCAAUAUUACGGGAA
2. AGCUAGCAAUAUUACGUGGC

[-1.16, -2.27]

Below are 6 sequences. Give each one its self-splicing fitness (ln).
1. AGGAAGCAAUAUUACGUGGG
2. GACAAGCAAUAUUACGCAGC
3. AUUAAGCAAUAUUACGGUUG
4. UCAGAGCAAUAUUACGGACU
5. UCAUAGCAAUAUUACGACGA
6. AUCCAGCAAUAUUACGGCCG

1: -3.38; 2: -1.7; 3: -2.56; 4: -1.77; 5: -0.532; 6: -0.00834

* * *

experiment-summary: self-splicing fitness, log relative to wild type (ln ratio); higher = more splicing; Tetrahymena group I intron in knt gene, E. coli kanamycin selection, DiMSum; sequences stand for … in CUCUCU…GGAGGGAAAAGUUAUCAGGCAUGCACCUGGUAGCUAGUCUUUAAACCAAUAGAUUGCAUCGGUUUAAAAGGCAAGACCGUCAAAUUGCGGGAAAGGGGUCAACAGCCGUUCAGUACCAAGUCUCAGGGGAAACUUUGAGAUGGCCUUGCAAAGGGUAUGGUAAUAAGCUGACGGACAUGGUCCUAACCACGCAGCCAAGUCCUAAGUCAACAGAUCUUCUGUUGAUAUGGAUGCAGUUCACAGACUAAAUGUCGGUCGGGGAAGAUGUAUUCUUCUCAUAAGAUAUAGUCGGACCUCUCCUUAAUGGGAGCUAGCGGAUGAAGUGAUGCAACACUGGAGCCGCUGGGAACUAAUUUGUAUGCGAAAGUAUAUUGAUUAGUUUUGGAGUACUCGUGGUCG
measurement-parameters: 37 °C
result-type: self-splicing fitness (ln)
Numbers only.

Below are 4 sequences. Give each one its self-splicing fitness (ln).
1. AUCUAGCAAUAUUACGAACU
2. AAAUAGCAAUAUUACGGCUC
3. AAUGAGCAAUAUUACGUCCU
4. UAACAGCAAUAUUACGGCAU

[0.27, 0.393, -0.218, 0.0326]

Below are 4 sequences. Give each one its self-splicing fitness (ln).
1. AAACAGCAAUAUUACGGAUC
2. CAAAAGCAAUAUUACGAACA
3. GAUUAGCAAUAUUACGUGGA
4. GAACAGCAAUAUUACGUAAC

[-1.73, -0.613, -0.488, -0.127]

Below are 3 sequences. Give each one its self-splicing fitness (ln).
1. UUGCAGCAAUAUUACGCCCG
2. GCUCAGCAAUAUUACGGCUU
3. CUGAAGCAAUAUUACGUCAU

1: -1.07; 2: -0.385; 3: -0.736

Below are 3 sequences. Give each one its self-splicing fitness (ln).
1. UCCUAGCAAUAUUACGUAAC
2. GAUCAGCAAUAUUACGGUGG
3. UGCCAGCAAUAUUACGACGA

1. -2.07
2. -0.762
3. -1.01

Below are 5 sequences. Give each one its self-splicing fitness (ln).
1. CUUGAGCAAUAUUACGAGCG
2. AGGGAGCAAUAUUACGGAUU
3. AUUCAGCAAUAUUACGGGUA
4. CUGCAGCAAUAUUACGUUUG
5. GCACAGCAAUAUUACGGUGC

-0.889
-2.67
-1.31
-0.958
-2.61

Below are 5 sequences. Give each one its self-splicing fitness (ln).
1. AUGGAGCAAUAUUACGAAGG
2. AUAGAGCAAUAUUACGUAGC
3. UACUAGCAAUAUUACGUUUG
4. CAUGAGCAAUAUUACGCCGA
5. GAUCAGCAAUAUUACGCUCG

-2.29
-2.27
-2.21
-2.48
-0.0564

Below are 3 sequences. Give each one its self-splicing fitness (ln).
1. CUGUAGCAAUAUUACGUUAC
2. AAAUAGCAAUAUUACGCGGC
3. AGUUAGCAAUAUUACGAGCA

-1.72
-2.2
-0.169

Below are 2 sequences. Give each one its self-splicing fitness (ln).
1. GUAUAGCAAUAUUACGGUGC
2. UUCUAGCAAUAUUACGAUUG

-1.76
-1.94

* * *

Please go through the items and note down their self-splicing fitness (ln).
experiment-summary: self-splicing fitness, log relative to wild type (ln ratio); higher = more splicing; Tetrahymena group I intron in knt gene, E. coli kanamycin selection, DiMSum; sequences stand for … in CUCUCU…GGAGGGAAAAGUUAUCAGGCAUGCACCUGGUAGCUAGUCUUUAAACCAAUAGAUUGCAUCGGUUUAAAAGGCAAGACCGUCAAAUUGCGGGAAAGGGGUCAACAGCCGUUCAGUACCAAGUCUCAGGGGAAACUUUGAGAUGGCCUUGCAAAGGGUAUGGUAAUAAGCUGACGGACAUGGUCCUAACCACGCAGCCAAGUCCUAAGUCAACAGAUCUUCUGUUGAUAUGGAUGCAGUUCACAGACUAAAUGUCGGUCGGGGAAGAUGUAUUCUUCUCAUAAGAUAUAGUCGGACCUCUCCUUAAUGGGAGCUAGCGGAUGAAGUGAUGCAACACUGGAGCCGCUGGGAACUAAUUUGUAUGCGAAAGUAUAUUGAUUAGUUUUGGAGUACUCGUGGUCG
measurement-parameters: 30 °C
Numbers only.

Answered cases to consult:
CUGUAGCAAUAUUACGAGGA: -2.78
UAAUAGCAAUAUUACGUGUC: -3.02
GGUUAGCAAUAUUACGGACG: 0.908
UCCAAGCAAUAUUACGAAAA: -2.15
GAACAGCAAUAUUACGCGUA: -0.925

Below are 4 sequences. Give each one its self-splicing fitness (ln).
1. GCAAAGCAAUAUUACGGUCC
2. CUUCAGCAAUAUUACGAGCU
3. GUCUAGCAAUAUUACGUAGA
4. GAAUAGCAAUAUUACGACCC

[-1.75, -3.82, -1.69, 0.178]

Below are 6 sequences. Give each one its self-splicing fitness (ln).
1. GCCUAGCAAUAUUACGCGGU
2. CGUCAGCAAUAUUACGAAAC
3. GUUCAGCAAUAUUACGAAGU
4. UUUCAGCAAUAUUACGUAUG
5. CAUGAGCAAUAUUACGUGAU
6. GCUCAGCAAUAUUACGGCUU

1: -4.03; 2: -3.63; 3: -0.606; 4: -0.689; 5: -2.58; 6: -0.675

Below are 2 sequences. Give each one its self-splicing fitness (ln).
1. GUGGAGCAAUAUUACGCACU
2. CUCCAGCAAUAUUACGUUUC

0.427
-3.65

Below are 2 sequences. Give each one its self-splicing fitness (ln).
1. CCUAAGCAAUAUUACGGAAU
2. GCAGAGCAAUAUUACGGCUG

1. -3.6
2. -2.42

* * *

Please go through the items and note down their self-splicing fitness (ln).
experiment-summary: self-splicing fitness, log relative to wild type (ln ratio); higher = more splicing; Tetrahymena group I intron in knt gene, E. coli kanamycin selection, DiMSum; sequences stand for … in CUCUCU…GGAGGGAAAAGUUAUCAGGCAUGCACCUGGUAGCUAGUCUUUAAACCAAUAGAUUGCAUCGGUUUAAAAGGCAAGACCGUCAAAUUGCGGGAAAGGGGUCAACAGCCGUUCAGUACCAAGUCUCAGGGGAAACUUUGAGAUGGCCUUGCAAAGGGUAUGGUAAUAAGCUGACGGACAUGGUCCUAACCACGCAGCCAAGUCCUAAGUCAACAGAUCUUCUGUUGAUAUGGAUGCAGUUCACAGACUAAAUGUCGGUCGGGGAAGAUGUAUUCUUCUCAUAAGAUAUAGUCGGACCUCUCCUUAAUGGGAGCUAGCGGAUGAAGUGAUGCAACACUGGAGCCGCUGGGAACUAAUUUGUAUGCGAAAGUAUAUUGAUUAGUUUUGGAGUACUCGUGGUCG
measurement-parameters: 37 °C
Answers are plain numbers.

UAUUAGCAAUAUUACGAUCU: 0.167
ACGGAGCAAUAUUACGUAAG: -1.82
UGUGAGCAAUAUUACGGGUU: -1.59
UUAUAGCAAUAUUACGCGCA: -0.728
CGUUAGCAAUAUUACGAGCC: 0.132

Below are 3 sequences. Give each one its self-splicing fitness (ln).
1. GAUGAGCAAUAUUACGGCUA
2. UGGCAGCAAUAUUACGUCGA
3. GCCAAGCAAUAUUACGUCCG

1: -1.41; 2: 0.401; 3: -1.6

Below are 2 sequences. Give each one its self-splicing fitness (ln).
1. UGGCAGCAAUAUUACGAACG
2. UUGGAGCAAUAUUACGUUCA

1. 0.145
2. -1

Below are 3 sequences. Give each one its self-splicing fitness (ln).
1. UAUGAGCAAUAUUACGUCGC
2. AAUAAGCAAUAUUACGAAGG
3. CCACAGCAAUAUUACGCUUG

1. -2.45
2. -2.04
3. -1.96
